Tested on: Musca domestica
Test: Filter paper disc contact test (Table 11)
Assay type: in vivo, house fly (Musca domestica)
Condition summary: Musca domestica, 24 h; 3.00 mg/disc
Readout type: mortality at 3000 µg/disc (%)
Form entry: value (%) — number only.

Prompt line: Which mortality at 3000 µg/disc is reported with Musca domestica for this entry: CC1(C)[C@H](C=C(Cl)Cl)[C@H]1C(=O)O[C@H](C#N)c1cccc(Oc2ccccc2)c1 (relative stereo) [Ib] ?
Response line: 100

Prompt line: Which mortality at 3000 µg/disc is reported with Musca domestica for this entry: CC1(C)[C@H](C(=O)O[C@H](C#N)c2cccc(Oc3ccccc3)c2)[C@@H]1C=C(Cl)Cl (relative stereo) [Ia] ?
Response line: 100

Prompt line: Which mortality at 3000 µg/disc is reported with Musca domestica for this entry: CC1(C)[C@H](C=C(Cl)Cl)[C@H]1C(=O)O[C@H](C#N)c1cccc(Oc2ccccc2)c1 [Ig] ?
Response line: 100

Prompt line: Which mortality at 3000 µg/disc is reported with Musca domestica for this entry: CC1(C)[C@H](C(=O)O[C@H](C#N)c2cccc(Oc3ccccc3)c2)[C@@H]1C=C(Cl)Cl [If] ?
Response line: 100

Now for another entry.
Prompt line: Which mortality at 3000 µg/disc is reported with Musca domestica for this entry: CC1(C)C(C=C(Cl)Cl)C1C(=O)OC(C#N)c1cccc(Oc2ccccc2)c1 (centres unmarked) ?
Response line: 100
